meta.source: patent US8383581B2

assay: Stability of peptides in simulated intestinal fluid (pH 7.5); type: in vitro ADME; details: simulated intestinal fluid, 24 h, 2 μM, pH 7.5
Where a SMILES comes first, the peptide text is derived from it. [ ]: non-standard residue; d: D form. ξ: configuration not given here. ξαMePhe(2,6-F2) = CC(N)(Cc1c(F)cccc1F)C(=O)O; ξαMePhe(2-F) = CC(N)(Cc1ccccc1F)C(=O)O; hArg = N=C(N)NCCCC[C@H](N)C(=O)O; Nle = CCCC[C@H](N)C(=O)O; ξαMeP = CC1(C(=O)O)CCCN1; Ac3c = NC1(C(=O)O)CC1; Aib = CC(C)(N)C(=O)O
property: % degradation of peptides in 24 h when incubated with simulated intestinal fluid (%)
State the answer as a number, implicitly in %.

molecule: CCCC[C@H](NC(=O)C(C)(Cc1c(F)cccc1F)NC(=O)[C@H](CCC(N)=O)NC(=O)[C@@H](NC(=O)[C@H](CCC(=O)O)NC(=O)C(C)(C)NC(=O)[C@@H](NC(=O)C1(N)CC1)C(C)C)[C@@H](C)CC)C(=O)N[C@@H](Cc1c[nH]cn1)C(=O)N[C@@H](CCC(N)=O)C(=O)N[C@@H](CCCCNC(=N)N)C(=O)N1CCCC1(C)C(=O)N[C@@H](CCCCN)C(=O)NC(C)(Cc1ccccc1F)C(N)=O (some centres unmarked) [Seq. ID. 75] (H-[Ac3c]V[Aib]EIQ[ξαMePhe(2,6-F2)][Nle]HQ[hArg][ξαMeP]K[ξαMePhe(2-F)]-NH2)
observed: 100

Note: attention shifts to another entry.
Q) // query % degradation of peptides in 24 h when incubated with simulated intestinal fluid value for entry CCCC[C@H](NC(=O)C(C)(Cc1ccccc1F)NC(=O)[C@H](CCC(N)=O)NC(=O)[C@@H](NC(=O)[C@H](CCC(=O)O)NC(=O)C(C)(C)NC(=O)[C@@H](NC(=O)C(C)(C)N)C(C)C)[C@@H](C)CC)C(=O)N[C@@H](Cc1c[nH]cn1)C(=O)N[C@@H](CCC(N)=O)C(=O)NC(C)(Cc1c(F)cccc1F)C(=O)NC(C)(C)C(=O)NC(C)(C)C(=O)NC(C)(Cc1ccccc1F)C(N)=O (some centres unmarked) [Seq. ID. 490] (H-[Aib]V[Aib]EIQ[ξαMePhe(2-F)][Nle]HQ[ξαMePhe(2,6-F2)][Aib][Aib][ξαMePhe(2-F)]-NH2)
A) 00
